- System: Calpain
- method: Measurement of calpain inhibiting effect (casein hydrolysis, IC50 by Probit)
- Format: biochemical, Japanese white rabbit
- particulars: 30 °C for 30 minutes, pH = 7.5, IC50 by method of Probit
Where a SMILES comes first, the peptide text is derived from it. [ ]: non-standard residue; d: D form. The star is where a group is joined. ξ: configuration not given here. Cbz = O=C(OCc1ccccc1)*; ξAze = O=C(O)C1CCN1
measurement name: IC50 (nM)
A number alone suffices; assume nM.

// worked examples, IC50 included
>  <compound>
CSCC[C@@H](C=O)NC(=O)C1CCN1C(=O)OCc1ccccc1 (some centres unmarked) [Compound No. 1-1] (Cbz-[ξAze]-Met-aldehyde)

>  <IC50 [nM]>
6600

$$$$
>  <compound>
Cc1ccc(S(=O)(=O)N2CCC(C(=O)N[C@H](C=O)Cc3ccccc3)CC2)cc1 [1-30]

>  <IC50 [nM]>
1100

$$$$
>  <compound>
O=C[C@H](CCSCc1ccc(Cl)cc1)NC(=O)C1CCN(C(=O)/C=C/c2ccccc2Cl)CC1 [1-62]

>  <IC50 [nM]>
1600

$$$$
>  <compound>
O=C[C@H](Cc1ccccc1)NC(=O)C1CCN(C(=O)c2ccc3ccccc3c2)CC1 [1-28]

>  <IC50 [nM]>
220

$$$$
>  <compound>
O=C[C@H](Cc1ccccc1F)NC(=O)C1CCN(C(=O)c2ccc3ccccc3c2)CC1 [Compound No. 1-55]

>  <IC50 [nM]>
630

$$$$
>  <compound>
CSCC[C@@H](C=O)NC(=O)[C@H](CC(C)C)OC(=O)Nc1ccccc1 [Compound No. 2-3]

>  <IC50 [nM]>
1600

$$$$
>  <compound>
CC(C)C[C@H](OC(=O)Nc1cccc2ccccc12)C(=O)N[C@H](C=O)Cc1ccccc1 [Compound No. 2-20]

>  <IC50 [nM]>
4400

$$$$
>  <compound>
CC(C)C[C@H](OC(=O)Nc1cccc2ccccc12)C(=O)N[C@H](C=O)CCSCc1ccccc1F [Compound No. 2-18]

>  <IC50 [nM]>
580

$$$$
>  <compound>
O=C[C@H](Cc1ccccc1)NC(=O)C1CCN(C(=O)/C=C/c2cccc(Cl)c2)CC1 [Compound No. 1-43]

>  <IC50 [nM]>
560

$$$$
>  <compound>
O=C[C@H](CCSCc1ccccc1Cl)NC(=O)C1CCN(C(=O)c2ccc3ccccc3c2)CC1 [1-51]

>  <IC50 [nM]>
1400

$$$$

stdin: Kindly indicate its recorded IC50. Item: O=C[C@H](Cc1ccccc1)NC(=O)C1CCN(C(=O)Nc2ccccc2)CC1 [1-41]
stdout: 940

stdin: Write down IC50 measured for item O=C[C@H](Cc1ccccc1)NC(=O)C1CCN(C(=O)c2cccs2)CC1 [1-32]
stdout: 2000

stdin: Tell me measured IC50 for O=C[C@H](Cc1ccccc1)NC(=O)C1CCN(C(=O)C2c3ccccc3-c3ccccc32)CC1 [1-39] please.
stdout: 2300

====

- system tested: a-chymotrypsin (Bos taurus, UniProt P00766)
pIC50: −log10 of the molar value.
measurement name: pIC50

stdin: Identify measured pIC50 corresponding to CC(C)C[C@H](NC(=O)OCc1ccccc1)C(=O)N[C@H](C=O)COCc1ccsc1
stdout: < 4.00

====

- Test system: Calpain
- method: Measurement of calpain inhibiting effect (casein hydrolysis, IC50 by Probit)
- Assay type: biochemical, Japanese white rabbit
- particulars: 30 °C for 30 minutes, pH = 7.5, IC50 by method of Probit
measurement name: pIC50
FYI, pIC50 means -log10 of a concentration in mol per litre.

stdin: Give pIC50 for the following compound: O=C[C@H](Cc1ccccc1)NC(=O)C1CCN(C(=O)C(c2ccccc2)c2ccccc2)CC1
stdout: 5.72

====

- System: Calpain
- method: Measurement of calpain inhibiting effect (casein hydrolysis, IC50 by Probit)
- Format: biochemical, Japanese white rabbit
- particulars: 30 °C for 30 minutes, pH = 7.5, IC50 by method of Probit
measurement name: pIC50
Just so you know, pIC50 here is -log10 of the concentration in molar units; reply with that number alone.

Would you please look over these solved cases?
>  <smiles structure>
O=C[C@H](Cc1ccccc1)NC(=O)C1CCN(C(=O)CCCc2ccccc2)CC1

>  <pIC50>
6.05

$$$$
>  <smiles structure>
CC(C)C[C@H](OC(=O)Nc1ccccc1)C(=O)N[C@H](C=O)Cc1ccccc1

>  <pIC50>
6.23

$$$$
>  <smiles structure>
CC(C)C[C@H](OC(=O)Nc1cccc2ccccc12)C(=O)N[C@H](C=O)CCc1ccccc1

>  <pIC50>
5.91

$$$$

Next compound, pIC50 to be filled in.
stdin: Look up pIC50 of O=C[C@H](Cc1ccccc1)NC(=O)C1CCN(C(=O)c2ccc(Cl)c(Cl)c2)CC1 and report it.
stdout: 6.11

====

- Test system: Calpain
- method: Measurement of calpain inhibiting effect (casein hydrolysis, IC50 by Probit)
- Assay type: biochemical, Japanese white rabbit
- particulars: 30 °C for 30 minutes, pH = 7.5, IC50 by method of Probit
measurement name: IC50 (µM)
Just the number in µM, nothing appended.

>  <smiles structure>
O=C[C@H](Cc1ccccc1)NC(=O)C1CCN(C(=O)OCc2ccccc2)CC1

>  <display unit>
µM

>  <IC50>
3

$$$$
>  <smiles structure>
O=C[C@H](Cc1ccccc1)NC(=O)C1CCN(C(=O)/C=C/c2ccc(Cl)cc2)CC1

>  <display unit>
µM

>  <IC50>
0.99

$$$$
>  <smiles structure>
O=C[C@H](Cc1ccccc1)NC(=O)C1CCN(C(=O)/C=C/c2ccccc2Cl)CC1

>  <display unit>
µM

>  <IC50>
0.35

$$$$
>  <smiles structure>
CC(C)C[C@H](OC(=O)Nc1ccccc1)C(=O)N[C@H](C=O)CCSCc1ccccc1F

>  <display unit>
µM

>  <IC50>
3.6

$$$$
>  <smiles structure>
O=C[C@H](Cc1ccc(OCc2ccccc2)cc1)NC(=O)C1CCN(C(=O)/C=C/c2ccccc2)CC1

>  <display unit>
µM

>  <IC50>
0.88

$$$$
>  <smiles structure>
O=C[C@H](Cc1c[nH]c2ccccc12)NC(=O)C1CCN(C(=O)/C=C/c2ccccc2Cl)CC1

>  <display unit>
µM

>  <IC50>
0.68

$$$$

stdin: Using known records, supply IC50 for CSCC[C@@H](C=O)NC(=O)[C@@H](OC(=O)Nc1ccccc1)C(C)C
stdout: 2

stdin: Indicate the recorded IC50 value for this compound: O=C[C@H](Cc1ccccc1)NC(=O)C1CCN(C(=O)/C=C/c2ccccc2)CC1
stdout: 0.75

stdin: For CSCC[C@@H](C=O)NC(=O)[C@H](CC(C)C)OC(=O)Nc1cccc2ccccc12 , write its IC50.
stdout: 1.9

stdin: Return value of IC50 for input CSCC[C@@H](C=O)NC(=O)[C@@H](OC(=O)Nc1cccc2ccccc12)C(C)C , no commentary.
stdout: 3.3

stdin: Tell me its IC50 given O=C[C@H](Cc1ccccc1)NC(=O)C1CCN(S(=O)(=O)c2ccc3ccccc3c2)CC1 as the entry.
stdout: 0.17
